system.name: T1, CD73 on the surface of human cells (human, UniProt P21589 27-549)
T1 construct: whole, on cells; The cell line of each value is named under assay or readout; also called CD73 on the surface of tumor cells; CD73 enzyme on the surface of MDA-MB-231 cells
T1 sequence (looked up): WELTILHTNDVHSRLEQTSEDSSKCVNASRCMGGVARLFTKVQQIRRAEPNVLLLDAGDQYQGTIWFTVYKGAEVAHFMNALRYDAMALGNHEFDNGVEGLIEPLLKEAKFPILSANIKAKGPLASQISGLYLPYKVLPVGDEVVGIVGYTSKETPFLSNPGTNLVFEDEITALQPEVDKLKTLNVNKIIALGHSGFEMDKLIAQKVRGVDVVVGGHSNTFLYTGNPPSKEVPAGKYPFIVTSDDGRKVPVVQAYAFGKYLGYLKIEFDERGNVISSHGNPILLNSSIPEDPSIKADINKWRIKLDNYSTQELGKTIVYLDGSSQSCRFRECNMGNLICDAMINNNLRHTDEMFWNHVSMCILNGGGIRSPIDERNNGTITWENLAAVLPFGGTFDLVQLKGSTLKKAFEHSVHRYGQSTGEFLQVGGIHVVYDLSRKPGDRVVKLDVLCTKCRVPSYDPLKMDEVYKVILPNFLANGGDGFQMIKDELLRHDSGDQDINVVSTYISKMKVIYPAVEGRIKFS
protocol.summary: Flow cytometry on HCC44 cells, PE-labelled secondary antibody
Measured Max MFI of individual entries
Write the answer as a number in MFI, unit excluded.

Examples with their reported Max MFI follow.
chimeric nanobody 3-D7 (Fc fusion, Human-alpaca chimeric antibody (VHH on hIgG1 Fc); Only the VHH is tied to the tested molecule; 37-39 exist for 3-D7-FC1/FC2/FC3; also called original antibody 3-D7) VHH: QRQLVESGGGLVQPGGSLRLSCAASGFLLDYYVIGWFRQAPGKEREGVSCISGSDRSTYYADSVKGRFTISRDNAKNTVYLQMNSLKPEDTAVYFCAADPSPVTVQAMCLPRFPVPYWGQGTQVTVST; 135000
chimeric nanobody 5-E11 (Fc fusion, Human-alpaca chimeric antibody (VHH on hIgG1 Fc); Only the VHH is tied to the tested molecule; also called original antibody 5-E11) VHH: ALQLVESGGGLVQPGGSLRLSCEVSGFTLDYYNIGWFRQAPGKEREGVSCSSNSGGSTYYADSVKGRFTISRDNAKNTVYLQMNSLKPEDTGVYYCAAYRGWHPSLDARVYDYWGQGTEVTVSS; 130000
chimeric nanobody 4-B02 (Fc fusion, Human-alpaca chimeric antibody) VHH: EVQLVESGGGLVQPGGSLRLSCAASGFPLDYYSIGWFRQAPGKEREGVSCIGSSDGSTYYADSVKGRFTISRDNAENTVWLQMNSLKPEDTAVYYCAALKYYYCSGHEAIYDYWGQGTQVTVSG; 136000

Below: the item to evaluate.
Problem: # get_value(readout='Max MFI', item= chimeric nanobody 4-D04 (Fc fusion, Human-alpaca chimeric antibody) VHH: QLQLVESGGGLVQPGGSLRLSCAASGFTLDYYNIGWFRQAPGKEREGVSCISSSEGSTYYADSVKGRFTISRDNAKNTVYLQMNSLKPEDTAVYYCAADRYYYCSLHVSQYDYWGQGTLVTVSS )
Solution: 145000

Data provenance: patent US20250382376A1
